Tested on: Pseudomonas aeruginosa
Test: Antibacterial activity against Pseudomonas aeruginosa KCTC 1637 assessed as reduction in bacterial growth incubated for 24 hrs by CLSI based broth dilution method
Assay type: functional
Conditions: read-out: MIC100
Parameter: MIC. Scope: all listed entries.
Reply numerically in µM, unit not repeated.

[
  {
    "substance": "H-LWKKIYRKWKRW-NH2",
    "measure name": "MIC",
    "result units": "µM",
    "result value": 2
  },
  {
    "substance": "H-LAIKIYRAWKRR-NH2",
    "measure name": "MIC",
    "result units": "µM",
    "result value": 4
  },
  {
    "substance": "H-KRFWQLVPLAIKIYRAWKRR-OH",
    "measure name": "MIC",
    "result units": "µM",
    "result value": 16
  },
  {
    "substance": "H-FWQLVPLAIKIYRAWKRR-NH2",
    "measure name": "MIC",
    "result units": "µM",
    "result value": 16
  },
  {
    "substance": "H-LAKKIYRAWKRW-NH2",
    "measure name": "MIC",
    "result units": "µM",
    "result value": 4
  }
]

Q) Using the record for H-LAKKIYRKWKRW-NH2 , report its MIC.
A) 4

Q) Using the record for H-LIKKIYRKWKRW-NH2 , report its MIC.
A) 2

Q) Using the record for H-QLVPLAIKIYRAWKRR-NH2 , report its MIC.
A) 16

Q) Using the record for H-LAKKIYRAWKRR-NH2 , report its MIC.
A) 4

Q) Using the record for H-VPLAIKIYRAWKRR-NH2 , report its MIC.
A) 8
